- Assayed target: human muscarinic M2 receptor (Homo sapiens, UniProt P08172)
- Sequence (P08172 1-466): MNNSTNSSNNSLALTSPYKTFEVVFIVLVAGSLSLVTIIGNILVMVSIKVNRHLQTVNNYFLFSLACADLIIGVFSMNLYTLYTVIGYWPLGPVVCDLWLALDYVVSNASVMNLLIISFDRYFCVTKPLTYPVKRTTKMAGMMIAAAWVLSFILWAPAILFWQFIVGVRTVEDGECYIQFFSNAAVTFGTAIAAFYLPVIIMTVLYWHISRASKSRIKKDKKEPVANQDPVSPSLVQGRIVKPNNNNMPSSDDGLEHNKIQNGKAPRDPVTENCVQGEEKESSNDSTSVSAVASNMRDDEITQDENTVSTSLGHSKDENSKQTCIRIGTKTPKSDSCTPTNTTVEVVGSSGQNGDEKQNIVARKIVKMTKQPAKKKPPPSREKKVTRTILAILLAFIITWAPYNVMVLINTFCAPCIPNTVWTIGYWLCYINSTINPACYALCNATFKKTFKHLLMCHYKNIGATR
- Protocol text: Alphascreen Surefire phospho-ERK1/2 functional assay, M2
- Assay type: cell-based
- Measurement context: CHO cells stably expressing human M2; phospho-ERK1/2; read-out: pEC50 M2 (converted)
Can you tell me EC50 for the items I'm about to list?

Fill blank: measured EC50 of the compound CCc1noc(C2CC3(CCN(C4CCC5(CC4)C(=O)Nc4ccccc45)C3)C2)n1 (single isomer, unassigned) [26-3 Isomer 1] is ____.
> 20 µM

// repeat for CCOC(=O)N1CCCN(C2CCC(C#N)(c3ccc(C(F)(F)F)cn3)CC2)CC1 (mixture of isomers) [3-21 mixture of isomers] and report
> 20 µM

// repeat for CCc1noc([C@H]2CC[C@@H](NC3CCC(C#N)(c4ccccc4)CC3)C2)n1 (single isomer, unassigned) [19-2 Isomer 2] and report
2.4 µM

// repeat for CCOC(=O)N1CC2(CCN(C3CCC(C#N)(c4ccccc4)CC3)CC2)C1 (single isomer, unassigned) [11-1 Isomer 2] and report
> 20 µM

// repeat for COC(=O)N1CCCN(C2CCC(C#N)(c3ccccc3)CC2)CC1 (mixture of isomers) [3-28 mixture of isomers] and report
> 20 µM

// repeat for CCOC(=O)N1CCCN(C2CCC3(CC2)C(=O)Nc2cc(C)ccc23)CC1 (single isomer, unassigned) [4-6 isomer 2] and report
> 15.8 µM

// repeat for CCOC(=O)N1CCCN(C2CCC(C#N)(c3ccc(OC)cn3)CC2)CC1 (single isomer, unassigned) [3-19 Isomer 2] and report
> 20 µM

// repeat for N#CC1(c2ccccc2)CCC(N2CCCN(C(=O)OCCF)CC2)CC1 (mixture of isomers) [3-29 mixture of isomers] and report
> 20 µM

// repeat for Cc1noc([C@@H]2CCCN(C3CCC4(CC3)C(=O)Nc3ccccc34)C2)n1 (single isomer, unassigned) [22-1 Isomer 1] and report
> 20 µM

// repeat for CCOC(=O)N1CCC2CN(C3CCC(C#N)(c4ccccc4)CC3)CC21 (single isomer, unassigned) [15-1 Isomer 2] and report
> 20 µM

// repeat for CCOC(=O)N1CCC2(CCN(C3CCC4(CC3)C(=O)N(C(=O)OCC)c3ccccc34)CC2)C1 (single isomer, unassigned) [12-2 isomer 1] and report
> 20 µM

// repeat for CCOC(=O)N1CCCN(C2CCC(C#N)(c3ccc(OCC)cn3)CC2)CC1 (single isomer, unassigned) [3-20 Isomer 2] and report
> 20 µM

// repeat for CCOC(=O)N1CCCN(C2CCC3(CC2)C(=O)Nc2ccc(C)cc23)CC1 (single isomer, unassigned) [4-7 isomer 1] and report
> 20 µM
